Origin of measurements: PubChem BioAssay (NCI)

system: MDA-MB-435 melanoma; assay: NCI-60 one-dose screen, 48 h; settings: 10 µM
About 83,000 compounds went through this panel and 20% of them were active in at least one assay; those are over-represented in the sample as a whole. Active and inactive are the calls of the source. The calls were made as follows: active = growth percent below 10; inactive = the rest.
Parameter call: string, one of active, inactive

# example entries with known answers
- molecule: "Cc1ccc(C(=O)N2C/C(=C/c3ccc(F)cc3)C(=O)/C(=C/c3ccc(F)cc3)C2)cc1"
  classification: "inactive"
- molecule: "O=C(NN1C(=O)CSC1c1ccc(Cl)cc1)c1cccnc1 (stereo not given)"
  classification: "inactive"
- molecule: "N=C(N)c1ccc(-c2ccc(-c3ccco3)o2)cc1"
  classification: "inactive"
- molecule: "CC[C@H]1CCC/C=C/[C@@H]2C[C@H](O)C[C@H]2[C@H](O)/C=C/C(=O)O1"
  classification: "active"
- molecule: "CC(C)=CCc1ccc(O)c(=O)cc1C(C)C"
  classification: "inactive"
- molecule: "CCOC(=O)C1(CC(C)C)CCOC1=O (stereo not given)"
  classification: "inactive"

Could you kindly confirm the outcome this assay logged for Clc1ccccc1N=Cc1ccc2c(c1)OCO2 ?
inactive
